Listing of entries alongside the reported TGI.
# Tested on: SN12C renal
# test.method.notes: NCI tumour cell line growth inhibition, 48 h
attribute.measured: TGI

compound: COc1ccc(C2c3cc4c(cc3OC(Nc3ccccc3)C2C)OCO4)cc1 (configuration not stated)
attribute.measured: TGI
readout.value: > 100 µM
--
compound: O=C(NC(C(F)(F)F)(C(F)(F)F)P(=O)(Cc1ccccc1)Cc1ccccc1)C(C(F)(F)F)C(F)(F)F
attribute.measured: TGI
readout.value: 38.4 µM
--
compound: COc1cc(CNc2oc(-c3ccccc3)c(-c3ccccc3)c2C#N)cc(CN2CCN(C)CC2)c1O
attribute.measured: TGI
readout.value: 15.3 µM
--
compound: N#CC1=C(N)NC(=O)NC12Nc1ccccc1N2
attribute.measured: TGI
readout.value: > 100 µM
--
compound: COC(C)C(O)(C(=O)OCC1=CCN2CCC(O)C12)C(C)(C)O (configuration not stated)
attribute.measured: TGI
readout.value: > 100 µM
--
compound: COc1c(N2CCN(CN3C(=O)C(=Nc4ccc(S(=O)(=O)Nc5ncccn5)cc4)c4cc(Cl)ccc43)C(C)C2)c(F)cc2c(=O)c(C(=O)O)cn(C3CC3)c12 (configuration not stated)
attribute.measured: TGI
readout.value: 27.5 µM
--
compound: CC(C)(C)OC(=O)Nc1ccc2c(c1)C(NC(=O)Nc1cccc(C#N)c1)CC(C)(C)O2 (configuration not stated)
attribute.measured: TGI
readout.value: > 100 µM
--
compound: NCCCCNCCCN1CCOC1=O
attribute.measured: TGI
readout.value: > 100 µM
--
compound: c1cncc(CSc2nc3ccccc3nc2-c2cccs2)c1
attribute.measured: TGI
readout.value: > 100 µM
--
compound: COc1cc2c3c(n(CCCNCCCN)c(=O)c2cc1OC)-c1cc2c(cc1C3=O)OCO2
attribute.measured: TGI
readout.value: 13.3 µM
--
compound: C=C1C[C@@H]2O[C@H]3[C@H]4[C@@H](C[C@@H](C)[C@@H](OC(C)=O)[C@H]42)[C@@H](C)CO[C@@]3(C)[C@H](OC(=O)CCCCCCC)CC1=O
attribute.measured: TGI
readout.value: 30.2 µM
--
compound: Oc1ccccc1/C=N/N1C(=S)N(C23CC4CC(CC(C4)C2)C3)C(=Nc2ccccc2)C1=Nc1ccccc1
attribute.measured: TGI
readout.value: > 100 µM
--
compound: CSc1nc(=O)c2nc(-c3cccs3)c(-c3cccs3)nc2n1C
attribute.measured: TGI
readout.value: > 100 µM
--
compound: O=c1c2ccc(Cl)cc2oc2c(CNc3ccc(S(=O)(=O)Nc4ncccn4)cc3)cccc12
attribute.measured: TGI
readout.value: > 100 µM
--
compound: C[C@H]1[C@H](C)CC[C@]2(C(=O)OC3OC(CO)C(O)C(O)C3O)CC[C@]3(C)C(=CC[C@@H]4[C@@]5(C)C[C@@H](O)[C@@H]6OC(=O)c7cc(O)c(O)c(O)c7-c7c(cc(O)c(O)c7O)C(=O)OC[C@@]6(CO)[C@@H]5CC[C@]43C)[C@H]12 (some centres not stated)
attribute.measured: TGI
readout.value: > 100 µM
--
compound: C=C1C(OC(C)=O)CC(OC(C)=O)C2(C)C(OC(C)=O)C(OC(C)=O)C3=C(C)C(OC(=O)/C=C/c4ccccc4)CC(C(OC(C)=O)C12)C3(C)C (configuration not stated)
attribute.measured: TGI
readout.value: > 100 µM
--
compound: CCOC(=O)/C=C/c1cccc(F)c1
attribute.measured: TGI
readout.value: > 100 µM
